Hello, the source for this data is patent EP4570793A1, in case you need it.

biological target: 5-HT2A receptor (Homo sapiens); test: Assay for 5-HT2A receptor inverse agonist activity (NIH3T3-5-HT2A R cells, Bright-Glo luciferase, cell inhibition rate); conditions: 5-HT2A inverse agonist activity IC50 (nM), NIH3T3-5HT2A R cells, 120 h, luminescence
Sequence (P28223 whole entry): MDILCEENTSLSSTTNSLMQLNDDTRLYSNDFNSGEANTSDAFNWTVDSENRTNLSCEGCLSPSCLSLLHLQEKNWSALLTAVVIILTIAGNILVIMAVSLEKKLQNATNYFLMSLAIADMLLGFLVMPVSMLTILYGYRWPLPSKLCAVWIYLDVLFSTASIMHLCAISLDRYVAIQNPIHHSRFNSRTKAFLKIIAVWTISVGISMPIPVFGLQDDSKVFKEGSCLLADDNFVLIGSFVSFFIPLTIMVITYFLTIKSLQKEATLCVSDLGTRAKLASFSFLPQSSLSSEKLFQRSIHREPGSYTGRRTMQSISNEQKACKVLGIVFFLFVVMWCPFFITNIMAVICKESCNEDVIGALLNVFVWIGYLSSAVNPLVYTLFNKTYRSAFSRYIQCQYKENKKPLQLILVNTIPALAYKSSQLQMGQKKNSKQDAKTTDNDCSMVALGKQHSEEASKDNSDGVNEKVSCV
endpoint label: IC50

Look over these answered cases.
{"molecule": "CN1CCC(N(Cc2ccc(F)cn2)C(=O)NCc2ccc(OC3CC(F)(F)C3)nc2)CC1", "IC50": "25.4 nM"}
{"molecule": "CN1CC[C@@H](N(Cc2ccc(F)cc2)C(=O)NCc2ccc3c(ccn3C)c2)[C@@H](F)C1 (single isomer, unassigned) [Compound 85A]", "IC50": "> 1000 nM"}
{"molecule": "CC(C)N1CC[C@H](N(Cc2ccc(F)cn2)C(=O)NCc2ccc(OCC(F)(F)F)nc2)[C@H](F)C1 (single isomer, unassigned) [Compound 70B]", "IC50": "280 nM"}
{"molecule": "CN1CC[C@H](N(Cc2ccc(F)cc2)C(=O)NCc2ccc3c(ccn3C)c2)[C@H](F)C1 (single isomer, unassigned) [Compound 85B]", "IC50": "88.7 nM"}
{"molecule": "CN1CCC(N(Cc2ccc(F)cn2)C(=O)NCc2ccc(OCC(F)(F)F)nc2)C2(CC2)C1 (single isomer, unassigned) [Compound 50B]", "IC50": "381 nM"}
{"molecule": "CN1CCC(N(Cc2ccc(F)cn2)C(=O)NCc2ccc3ncccc3c2)CC1", "IC50": "29.6 nM"}

Lab entry: 5-HT2A receptor (Homo sapiens) assay, molecule [2H]C([2H])([2H])N1CC[C@H](N(Cc2ccc(F)cn2)C(=O)NCc2ccc(OCC(F)(F)F)nc2)[C@H](F)C1 (single isomer, unassigned) [Compound 72B] , IC50 = 43.7 nM

Lab entry: 5-HT2A receptor (Homo sapiens) assay, molecule CCN1CC[C@H](N(Cc2ccc(F)cn2)C(=O)NCc2ccc(OCC(F)(F)F)nc2)[C@H](F)C1 (single isomer, unassigned) [Compound 69B] , IC50 = 156 nM

Lab entry: 5-HT2A receptor (Homo sapiens) assay, molecule CN1CCC(N(Cc2ccc(F)cn2)C(=O)NCc2ccc(OCC(F)(F)F)nc2)C(C)(C)C1 (single isomer, unassigned) [Compound 49A] , IC50 = 105 nM

Lab entry: 5-HT2A receptor (Homo sapiens) assay, molecule O=C(NCc1ccc(OCC(F)(F)F)nc1)N(Cc1ccc(F)cn1)C1CCNCC1F (single isomer, unassigned) [Compound 56B] , IC50 = 325 nM

Lab entry: 5-HT2A receptor (Homo sapiens) assay, molecule `CN1CCC(N(Cc2ccc(F)cn2)C(=O)NCc2ccc3[nH]ccc3c2)CC1` , IC50 = 28.2 nM

Lab entry: 5-HT2A receptor (Homo sapiens) assay, molecule [2H]C([2H])([2H])N1CC[C@@H](N(Cc2ccc(F)cn2)C(=O)NCc2ccc(OCC(F)(F)F)nc2)[C@@H](F)C1 (single isomer, unassigned) [Compound 72A] , IC50 = 416 nM

Lab entry: 5-HT2A receptor (Homo sapiens) assay, molecule CN1CCC(N(Cc2ccc(F)cn2)C(=O)NCc2ccc(OCC(F)(F)F)nc2)C(F)(F)C1 (single isomer, unassigned) [Compound 46A] , IC50 = > 1000 nM
